Recorded Ki for molecules tested on the protein given by its sequence, drawn from a number of studies.
Sequence of the target: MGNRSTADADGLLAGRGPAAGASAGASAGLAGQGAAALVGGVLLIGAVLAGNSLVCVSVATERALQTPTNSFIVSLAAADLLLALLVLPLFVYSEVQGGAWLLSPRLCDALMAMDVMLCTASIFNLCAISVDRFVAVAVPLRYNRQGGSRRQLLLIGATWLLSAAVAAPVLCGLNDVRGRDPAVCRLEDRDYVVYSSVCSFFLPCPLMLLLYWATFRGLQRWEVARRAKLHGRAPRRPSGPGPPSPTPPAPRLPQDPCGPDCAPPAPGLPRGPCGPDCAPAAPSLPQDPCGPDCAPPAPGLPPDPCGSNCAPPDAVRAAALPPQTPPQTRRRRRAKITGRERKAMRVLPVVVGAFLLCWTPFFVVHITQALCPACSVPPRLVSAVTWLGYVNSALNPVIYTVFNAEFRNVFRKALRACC

>  <molecule>
COc1ccccc1N1CCN(CC(O)CCn2cc(-c3ccccc3)nn2)CC1 (racemic)

>  <Ki>
> 3000 nM

$$$$
>  <molecule>
C[C@@H]1Cc2c([nH]c3ccccc23)Cc2ccccc2CCN1C

>  <Ki>
> 10000 nM

$$$$
>  <molecule>
COc1ccccc1N1CCN(CCCOc2ccc3c(c2)NC(=O)CC3)CC1

>  <Ki>
38.5 nM

$$$$
>  <molecule>
O=C(NCCCCN1CCN(c2cccc(Cl)c2Cl)CC1)c1cn(-c2ccc([N+](=O)[O-])cc2)nn1

>  <Ki>
280 nM

$$$$
>  <molecule>
COc1cc(CCNCCc2ccc(O)c(O)c2)ccc1OCCCc1ccccc1

>  <Ki>
38 nM

$$$$
>  <molecule>
CNc1cc(OC)c(C(=O)NC[C@H]2CCN(Cc3ccccc3)C2)cc1Cl

>  <Ki>
23 nM

$$$$
>  <molecule>
Oc1ccc2c(c1)CCN1CCc3ccccc3C21 (centres undefined)

>  <Ki>
> 10000 nM

$$$$
>  <molecule>
COc1ccccc1N1CCN(CCCCNC(=O)c2cc3cc(O)ccc3[nH]2)CC1

>  <Ki>
444 nM

$$$$
>  <molecule>
CCCN(CCCCNC(=O)c1ccc(-c2ccccc2)cc1)C1CCn2ncc(C=O)c2C1 (centres undefined)

>  <Ki>
6300 nM

$$$$

* * *

Before we begin, note that these pKi values for UniProtKB P21917 originate from several publications.
system tested: UniProtKB P21917
Sequence (P21917 whole entry): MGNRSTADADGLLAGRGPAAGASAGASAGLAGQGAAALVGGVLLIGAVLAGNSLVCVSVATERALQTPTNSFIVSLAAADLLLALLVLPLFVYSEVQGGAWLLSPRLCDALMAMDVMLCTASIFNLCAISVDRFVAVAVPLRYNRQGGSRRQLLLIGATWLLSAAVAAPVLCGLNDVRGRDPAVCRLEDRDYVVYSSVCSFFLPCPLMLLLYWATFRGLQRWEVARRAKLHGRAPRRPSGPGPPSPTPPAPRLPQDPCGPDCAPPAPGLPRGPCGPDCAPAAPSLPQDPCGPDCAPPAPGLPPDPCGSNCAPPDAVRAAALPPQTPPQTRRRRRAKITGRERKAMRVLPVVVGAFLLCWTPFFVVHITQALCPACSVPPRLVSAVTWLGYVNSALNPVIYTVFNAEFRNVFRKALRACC
pKi: −log10 of the molar value.

>  <compound>
O=C(NCCC(CF)N1CCN(c2cccc(Cl)c2Cl)CC1)c1cc2ccccc2o1 (stereo not drawn)

>  <value modifier>
<

>  <pKi>
5.52

$$$$
>  <compound>
COc1ccccc1N1CCN(CCCCN2CCc3cc(-c4cccs4)ccc3C2=O)CC1

>  <value modifier>
=

>  <pKi>
8.64

$$$$
>  <compound>
COc1ccccc1N1CCN(CCCNC(=O)NN(Cc2ccccc2)c2ccc(Cl)cc2)CC1

>  <value modifier>
=

>  <pKi>
8.54

$$$$
>  <compound>
COc1ccccc1N1CCN(CCCCCNC(=O)c2nnn(Cc3ccccc3Br)c2C)CC1

>  <value modifier>
=

>  <pKi>
7.38

$$$$
>  <compound>
O=C(NC/C=C/CN1CCN(c2cccc(Cl)c2Cl)CC1)c1ccc(-c2ccccn2)cc1

>  <value modifier>
=

>  <pKi>
6.43

$$$$
>  <compound>
O=C(NCCCCN1CCN(c2cccc(Cl)c2Cl)CC1)c1cc2cc(I)ccc2o1

>  <value modifier>
=

>  <pKi>
5.66

$$$$
>  <compound>
Clc1ccccc1N1CCN(Cc2nc3ccccc3[nH]2)CC1

>  <value modifier>
=

>  <pKi>
8.07

$$$$
>  <compound>
c1ccc(CCN2CCC(c3cc(-c4cccs4)[nH]n3)CC2)cc1

>  <value modifier>
=

>  <pKi>
7.72

$$$$
>  <compound>
O=C(NCCC(O)CN1CCN(c2cccc(Cl)c2Cl)CC1)c1cc2cc(I)ccc2[nH]1 (stereo not drawn)

>  <value modifier>
<

>  <pKi>
5.00

$$$$
>  <compound>
CNc1cc(OC)c(C(=O)NC2CCN(Cc3ccccc3)CC2)cc1Cl

>  <value modifier>
=

>  <pKi>
8.08

$$$$
>  <compound>
CCOC(=O)c1cnn2cccc(CN3CCN(c4ccc(Cl)cc4)CC3)c12

>  <value modifier>
=

>  <pKi>
5.17

$$$$
>  <compound>
N#CC(C#N)=Cc1cc(CN2CCN(c3ccc(Cl)cc3)CC2)c[nH]1

>  <value modifier>
=

>  <pKi>
8.24

$$$$
>  <compound>
C[C@@H]1Cc2ccccc2N1C(=O)CN1CCN(Cc2cccc(F)c2)CC1

>  <value modifier>
=

>  <pKi>
8.22

$$$$
>  <compound>
COc1ccccc1N1CCN(CCCCNC(=O)c2cccc(F)n2)CC1

>  <value modifier>
=

>  <pKi>
7.12

$$$$
>  <compound>
Brc1ccc(-[n+]2cc[n+](Cc3ccccc3)cc2)c2cc[nH]c12

>  <value modifier>
=

>  <pKi>
8.59

$$$$
>  <compound>
CN1CCCc2ccccc2Cc2ccc(O)cc2CC1

>  <value modifier>
=

>  <pKi>
7.22

$$$$
>  <compound>
COc1cc2c(cc1OC)CN(Cc1ccccc1CNC(=O)c1ccc(C#N)cc1)CC2

>  <value modifier>
=

>  <pKi>
6.85

$$$$
>  <compound>
Clc1cccc(N2CCN(CCCCn3cc(-c4ccc(-c5ccccc5)cc4)nn3)CC2)c1Cl

>  <value modifier>
<

>  <pKi>
5.00

$$$$
